All values here come from ChEMBL document CHEMBL1139258.

target: Nitric oxide synthase 3 (Homo sapiens) (UniProt P29474); experiment: Inhibition of human recombinant eNOS at 100 uM
Sequence (P29474 whole entry): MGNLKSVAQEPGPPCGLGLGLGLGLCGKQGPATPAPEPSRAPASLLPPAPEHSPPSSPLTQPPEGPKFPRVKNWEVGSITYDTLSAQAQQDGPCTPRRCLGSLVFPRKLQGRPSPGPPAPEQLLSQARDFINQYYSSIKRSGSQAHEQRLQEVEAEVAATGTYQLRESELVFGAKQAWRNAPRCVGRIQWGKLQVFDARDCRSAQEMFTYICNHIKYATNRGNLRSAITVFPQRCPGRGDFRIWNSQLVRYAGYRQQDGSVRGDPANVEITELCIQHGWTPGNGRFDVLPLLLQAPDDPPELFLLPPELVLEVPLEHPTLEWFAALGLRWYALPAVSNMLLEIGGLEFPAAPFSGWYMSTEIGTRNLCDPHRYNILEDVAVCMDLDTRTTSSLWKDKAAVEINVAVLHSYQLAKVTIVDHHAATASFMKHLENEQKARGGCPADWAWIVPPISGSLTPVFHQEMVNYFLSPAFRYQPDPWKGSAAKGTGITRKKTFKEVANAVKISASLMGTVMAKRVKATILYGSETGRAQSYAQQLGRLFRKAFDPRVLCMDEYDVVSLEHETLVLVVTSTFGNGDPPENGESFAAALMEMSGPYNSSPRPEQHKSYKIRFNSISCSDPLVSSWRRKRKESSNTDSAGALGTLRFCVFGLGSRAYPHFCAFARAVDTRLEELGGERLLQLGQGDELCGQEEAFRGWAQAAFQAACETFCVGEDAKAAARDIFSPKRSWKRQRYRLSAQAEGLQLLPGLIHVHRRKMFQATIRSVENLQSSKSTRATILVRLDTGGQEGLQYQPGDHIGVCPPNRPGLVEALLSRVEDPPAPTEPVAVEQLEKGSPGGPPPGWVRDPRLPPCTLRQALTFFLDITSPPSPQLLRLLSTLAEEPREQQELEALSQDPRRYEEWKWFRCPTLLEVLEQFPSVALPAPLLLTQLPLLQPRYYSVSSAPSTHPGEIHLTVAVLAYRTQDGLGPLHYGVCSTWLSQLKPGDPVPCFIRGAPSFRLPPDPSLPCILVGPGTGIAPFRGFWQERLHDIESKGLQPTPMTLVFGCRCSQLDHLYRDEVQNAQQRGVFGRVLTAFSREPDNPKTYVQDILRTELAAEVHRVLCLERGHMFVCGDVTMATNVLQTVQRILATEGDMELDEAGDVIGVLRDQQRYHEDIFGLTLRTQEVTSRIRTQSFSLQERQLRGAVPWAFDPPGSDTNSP
Entry flag: Condition met if inhibition reaches 20%; Condition not met if it does not.

Exercise: Decide: inhibition of `C=CCCNC(=N)NCCC[C@H](N)C(=O)O` >= 20%?
Key: Condition not met

Exercise: Decide: inhibition of `N=C(NCCC[C@H](N)C(=O)O)NCCC(N)=O` >= 20%?
Key: Condition not met

Exercise: Decide: inhibition of `CC(=N)NCCC[C@H](N)C(=O)O` >= 20%?
Key: Condition met

Exercise: Decide: inhibition of `CCCNC(=N)NCCC[C@H](N)C(=O)O` >= 20%?
Key: Condition not met

Exercise: Decide: inhibition of `C/C=C/CC(=N)NCCC[C@H](N)C(=O)O` >= 20%?
Key: Condition met

Exercise: Decide: inhibition of `N=C(NCCC[C@H](N)C(=O)O)N[N+](=O)[O-]` >= 20%?
Key: Condition met
